Listed below: TGI values for each entry.
Test system: HCT-15 colon
Test: NCI tumour cell line growth inhibition, 48 h

Examples with their reported TGI follow.
{"compound": "C=C1C(=O)O[C@H]2[C@H]1CC/C(Cn1cc(Cn3ccc4cc(Cl)ccc43)nn1)=C\\CC[C@@]1(C)O[C@@H]21", "TGI": "2.66 µM"}
{"compound": "c1ccc2c(c1)n1c(N3CCOCC3)[n+]3ccccc3c1c1c3cccc[n+]3c(N3CCOCC3)n21", "TGI": "> 100 µM"}
{"compound": "CCSc1nc(=S)[nH]c2[nH]ncc12", "TGI": "> 100 µM"}
{"compound": "COc1ccc2c(c1)C(=O)c1c-2c(N2CCN(C(=O)CN(C)C)CC2)nc2ccccc12", "TGI": "32.3 µM"}
{"compound": "CCN(CC)/C(=C\\Cl)Nc1ccccn1", "TGI": "> 100 µM"}
{"compound": "CC1=C(C(=O)OC23CC4CC(CC(C4)C2)C3)C(c2ccccc2OC(F)F)C(C(=O)OC23CC4CC(CC(C4)C2)C3)=C(C)N1 (stereo unspecified)", "TGI": "> 100 µM"}
{"compound": "OCC1OC(O)C(N=Cc2ccc3c(c2)OCO3)C(O)C1O (stereo unspecified)", "TGI": "> 100 µM"}
{"compound": "O=C(n1[nH]c(=O)n(-c2ccc([N+](=O)[O-])cc2)c1=O)C(Cl)(Cl)Cl", "TGI": "> 75 µM"}

The compound Clc1cccc(Cl)c1C1SCc2nc3cc4ccccc4cc3n21 (stereo unspecified) showed TGI equal to > 100 µM

Noted for "CN1CCN(Cc2ccc(NC(=O)c3[nH]ncc3Nc3ccnc4ccsc34)cc2)CC1" : its TGI reads 16.1 µM

The compound listed as "O=[N+]([O-])c1ccccc1/C=C/C=C1c2ccccc2-c2ccccc21" shows TGI equal to > 100 µM

----------
TGI listing for selected molecules.
Tested on: OVCAR-3 ovarian
Assay: NCI tumour cell line growth inhibition, 48 h
Use µM as the unit, but write only the number.

Illustrative cases are given below, each with its answer.
{"smi": "COc1cc2c3c(n(CCCn4ccnc4)c(=O)c2cc1OC)-c1ccccc1C3=O", "unit-string": "µM", "endpoint-value": 0.484}
{"smi": "CCCN1C(=O)/C(=C/c2ccc(O)cc2)SC1=Nc1ccccc1", "unit-string": "µM", "endpoint-value": 33.8}
{"smi": "O=C(Nc1nc(-c2ccc(Cl)cc2)cs1)c1ccc(O)c(O)c1", "unit-string": "µM", "endpoint-value": 18.2}
{"smi": "C/C(=C\\c1ccn(-c2ccc(N)cc2C(F)(F)F)n1)[C@@H]1C[C@@H]2O[C@]2(C)CCC[C@H](C)[C@H](O)[C@@H](C)C(=O)C(C)(C)[C@@H](O)CC(=O)O1", "unit-string": "µM", "endpoint-value": 2.66}

Please look at the following molecule next.
Fill in: OVCAR-3 ovarian TGI for "COc1c(C(=O)O)cccc1-c1cccc(C(=O)NCCN(CCNC(=O)c2cccc(-c3cccc(C(=O)O)c3OC)c2OC)CCNC(=O)c2cccc(-c3cccc(C(=O)O)c3OC)c2OC)c1OC" = 64.6

----------
System: K-562 leukemia
Test: NCI tumour cell line growth inhibition, 48 h
Overview of recorded TGI for various molecules

Worked set:
{"smi": "O=C(O/N=C1/CCC/C1=C\\c1ccccc1)c1ccccc1", "property-label": "TGI", "endpoint-value": "> 100 µM"}
{"smi": "O=C(/C=C/c1ccc2c(c1)OCO2)c1ccccc1", "property-label": "TGI", "endpoint-value": "> 100 µM"}
{"smi": "COc1ccc(-c2cc(=O)c3c(O)c(OC)c(O)cc3o2)cc1O", "property-label": "TGI", "endpoint-value": "> 52.7 µM"}
{"smi": "Nc1c(C(=O)Nc2cccc3ccccc23)sc2nc3c(cc12)CCCCC3", "property-label": "TGI", "endpoint-value": "> 50 µM"}
{"smi": "C=C(CO)[C@H]1CC/C(C)=C/CC/C(C)=C/C/C=C(\\C)[C@H](O)C1", "property-label": "TGI", "endpoint-value": "> 100 µM"}

Note: attention shifts to another entry.
K-562 leukemia data for "Cc1ccc(S(=O)(=O)Oc2coc(CO)cc2=O)cc1" ; its TGI: > 100 µM

----------
Test system: RPMI-8226 leukemia
Assay: NCI tumour cell line growth inhibition, 48 h
property-label: TGI

{"compound": "Cc1c2c(cc3c1[nH]c1ccccc13)C(c1ccc(F)cc1)=NCC2", "endpoint-value": "2.54 µM"}
{"compound": "COc1ccc2c(c1)-c1c(c3ccccc3n1CCN1CCCCC1)CC2", "endpoint-value": "36.3 µM"}
{"compound": "c1ccc2c(OCC3CO3)ccc(OCC3CO3)c2c1 (stereo not given)", "endpoint-value": "9.44 µM"}
{"compound": "O=C(/C=C/c1ccc2c(c1)OCO2)c1ccccc1", "endpoint-value": "> 100 µM"}
{"compound": "N#Cc1c(N)nc(N2CCOCC2)c(C#N)c1-c1cccc(O)c1", "endpoint-value": "> 100 µM"}
{"compound": "O=C(n1[nH]c(=O)n(-c2ccc([N+](=O)[O-])cc2)c1=O)C(Cl)(Cl)Cl", "endpoint-value": "> 75 µM"}

Record "N#Cc1c(SCc2ccccc2)nc2[nH]c(=S)[nH]c(=S)c2c1-c1ccco1" , field TGI: 13.9 µM

Sure, the documented TGI for CCCCCCCCO/N=C\c1c2c(O)c3c(O)c(C)c4c(c3c1O)C(=O)C(C)(O/C=C\C(OC)C(C)C(OC(C)=O)C(C)C(O)C(C)C(O)C(C)/C=C\C=C(\C)C(=O)N2)O4 (stereo not given) is 8.43 µM

TGI recorded for this compound, "N=c1oc2cc(O)c(O)cc2cc1C(N)=O" , is > 100 µM

Briefly, TGI measured for "[N-]=[N+]=Nc1cc(=O)n(-c2ccccc2)c(=O)n1-c1ccccc1" : > 100 µM

----------
Test system: SF-268 CNS
Test: NCI tumour cell line growth inhibition, 48 h
property-label: GI50

Field: example entries. Status: answers known.
{"smi": "CCN(CC)CCCN1C(=O)c2c(c(C)c3c(oc4cc(O)ccc43)c2C)C1=O", "measured-on": "SF-268 CNS", "endpoint-value": "1740 nM"}
{"smi": "C=C1C(=O)O[C@H]2[C@H]1CC/C(COC(=O)NCCc1c[nH]c3ccccc13)=C\\CC[C@@]1(C)O[C@@H]21", "measured-on": "SF-268 CNS", "endpoint-value": "2940 nM"}
{"smi": "COc1cc(/C=C2\\C[C@H]3[C@@H]4CC=C5C[C@@H](OC(C)=O)CC[C@]5(C)[C@H]4CC[C@]3(C)[C@H]2OC(C)=O)ccc1OCCCn1ccnc1", "measured-on": "SF-268 CNS", "endpoint-value": "9630 nM"}

As a next step, examine the compound that follows.
The recorded GI50 for entry "CCSc1nc(=S)[nH]c2[nH]ncc12" equals 51900 nM

----------
System: HCT-116 colon
Assay: NCI tumour cell line growth inhibition, 48 h
The compounds listed here are annotated with their log10 of TGI.
Heads up: the numbers are on a log10 scale; they represent TGI in µM.

The cases that follow already have their log10 of TGI on record.
{"compound": "O=S(=O)(NCCNc1cc(-c2cn(-c3ccccc3)nc2-c2cccc(O)c2)ccn1)c1ccc(F)cc1", "log10 of TGI": 1.02}
{"compound": "CCCCCCCCO/N=C\\c1c2c(O)c3c(O)c(C)c4c(c3c1O)C(=O)C(C)(O/C=C\\C(OC)C(C)C(OC(C)=O)C(C)C(O)C(C)C(O)C(C)/C=C\\C=C(\\C)C(=O)N2)O4 (configuration not stated)", "log10 of TGI": 0.34}
{"compound": "O=C(/C=C\\c1cccc2ccccc12)c1ccc(Br)cc1", "log10 of TGI": 1.48}
{"compound": "CCC/C(Cl)=N\\OC(=O)Nc1ccc(Br)cc1", "log10 of TGI": 1.42}
{"compound": "COc1cc(N)ccc1Nc1c2ccccc2nc2ccccc12", "log10 of TGI": 0.88}
{"compound": "O=C1OC(c2ccccc2)(c2ccccc2)CC1CN1CCOCC1 (configuration not stated)", "log10 of TGI": 1.40}
{"compound": "Cc1cc(Nc2nc(N3CCOCC3)nc3ccccc23)n[nH]1", "log10 of TGI": 1.43}
{"compound": "OC1C=C2C3CN(Cc4cc5c(cc43)OCO5)[C@H]2C[C@@H]1O (some centres not stated)", "log10 of TGI": 1.40}

# input for lookup
log10 of TGI measured on "NC(=Nc1ccc(Cl)c(Cl)c1)c1ccccc1N" = 1.76

----------
// reported TGI for each item listed
System: EKVX NSCLC
Test: NCI tumour cell line growth inhibition, 48 h

Answered cases to consult:
{"compound": "C/C=C/C/C=C/CCC(=O)C1OC1C(N)=O (stereo not given)", "measured-on": "EKVX NSCLC", "endpoint-value": "36.4 µM"}
{"compound": "O=c1[nH]c2nccn2c(Cl)c1Br", "measured-on": "EKVX NSCLC", "endpoint-value": "40.3 µM"}
{"compound": "O=C(/C=C/c1c(O)c2ccccc2[nH]c1=O)CC(=O)C(=O)Nc1cccc(O)c1", "measured-on": "EKVX NSCLC", "endpoint-value": "> 100 µM"}
{"compound": "N#CC(c1ccc(Cl)cc1)c1cccc(Cl)n1 (stereo not given)", "measured-on": "EKVX NSCLC", "endpoint-value": "> 100 µM"}
{"compound": "Cc1cc(Nc2ncc(Cl)c(Nc3ccccc3S(=O)(=O)C(C)C)n2)c(OC(C)C)cc1C1CCNCC1", "measured-on": "EKVX NSCLC", "endpoint-value": "2.71 µM"}

// sample O=C1CC(N2C(=O)/C(=C/C(Cl)=C\c3ccc([N+](=O)[O-])cc3)SC2=S)C(=O)N1c1ccc(Cl)cc1 (stereo not given) , its TGI was > 100 µM

Reported TGI for "N#Cc1c(N)nc(N2CCOCC2)c(C#N)c1-c1cccc(O)c1" was > 100 µM

For this compound ( "Nc1c(C(=O)Nc2cccc3ccccc23)sc2nc3c(cc12)CCCCC3" ), measured TGI is > 50 µM

The compound listed as CC/C(=C/OC)P1(=O)OC(C)(C)CN1C(C)(C)C (stereo not given) has a reported TGI of > 100 µM

The reported value for "O=C(CSc1nc2sc3c(c2c(=O)n1-c1ccccc1)CCCCC3)N/N=C/c1ccc(F)cc1" in terms of TGI is 41.7 µM
